Target: TNFα / TNFα receptor (TNFα R1/Fc) (Homo sapiens, UniProt P01375)
Construct: purchased R&D Systems
Sequence (P01375 77-233 limits assumed, species assumed): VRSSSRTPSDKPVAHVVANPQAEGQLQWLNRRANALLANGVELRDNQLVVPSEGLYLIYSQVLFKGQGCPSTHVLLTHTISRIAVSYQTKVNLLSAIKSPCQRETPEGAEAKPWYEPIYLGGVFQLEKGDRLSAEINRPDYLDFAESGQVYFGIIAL
Experiment: Inhibition of binding of TNFα to the TNFα receptor (plate ELISA competition)
Details: Table 2; read-out: Activity (IC50, inhibition of TNFα binding to TNFα R1/Fc)
Recorded IC50 for the following compounds

>>> result_value("O=C(O)[C@@H]1Cc2ccc(cc2)NC(=O)[C@H](O)[C@@H](O)C(=O)N[C@H](Cc2cccs2)C(=O)N[C@H](Cc2ccc(-c3ccccc3)cc2)C(=O)N[C@H](Cc2ccccc2)C(=O)N1 [Compound 269]")
"> 100 µM"
>>> result_value("O=C(O)[C@@H]1Cc2ccc(cc2)NC(=O)[C@H](O)[C@@H](O)C(=O)N[C@H](Cc2cccs2)C(=O)N[C@@H](Cc2ccc(C(F)(F)F)cc2)C(=O)N[C@H](Cc2ccccc2)C(=O)N1 [Compound 178]")
"> 100 µM"

Request: Lab request: please report IC50 under test system TNFα / TNFα receptor (TNFα R1/Fc) (Homo sapiens, UniProt P01375) for O=C1COc2ccc(cc2)C[C@@H](C(=O)O)NC(=O)[C@H](Cc2ccc(O)cc2)NC(=O)[C@H](Cc2ccc(-c3ccccc3)cc2)NC(=O)[C@H](Cc2cccs2)N1 [Compound 428]
Result: < 10 µM
